Source: patent US10705101B2

procedure_details: Probe calibration by titration with FFA / FFA-BSA complexes: PA
Type: binding
run_parameters: equilibrium dissociation constant of probe for PA
property_label: pKd
Entry type: numeric. Quantity: pKd, the -log10 of concentration in molar units.

{"columns": ["molecule", "pKd"],
 "data": [
  ["L1P8 H2: acrylodan-labeled mutant FABP probe: Y14M, L38M, L72W (protein, UniProt P02693 2-132, looked up, variant Y14M L38M L72W, acrylodan label, acrylodan-labeled mutant FABP probe: Y14M, L38M, L72W) Fatty acid-binding protein, …: AFDGTWKVDRNENMEKFMEKMGINVVKRKLGAHDNLKMTITQEGNKFTVKESSNFRNIDVVFELGVDFAYSWADGTELTGTWTMEGNKLVGKFKRVDNGKELIAVREISGNELIQTYTYEGVEAKRIFKKE", 7.34]
]}

// query Please give the measured pKd for this molecule: L10P7 A4 L30C: acrylodan-labeled mutant FABP probe: Y14L, M18L, K27A, L30C, G31Y, A73L, Y117A (protein, UniProt P02693 2-132, looked up, variant Y14L M18L K27A L30C G31Y A73L Y117A, acrylodan label, acrylodan-labeled mutant FABP probe: Y14L, M18L, K27A, L30C, G31Y, A73L, Y117A) Fatty acid-binding protein, …: AFDGTWKVDRNENLEKFLEKMGINVVARKCYAHDNLKLTITQEGNKFTVKESSNFRNIDVVFELGVDFAYSLLDGTELTGTWTMEGNKLVGKFKRVDNGKELIAVREISGNELIQTATYEGVEAKRIFKKE
// result 8.52

// query Please report the recorded pKd for ADIFAB2: acrylodan-labeled (lysine 27) mutant FABP probe: L72A (protein, UniProt P02693 2-132, looked up, variant L72A, acrylodan label on K27, acrylodan-labeled (lysine 27) mutant FABP probe: L72A) Fatty acid-binding protein, …: AFDGTWKVDRNENYEKFMEKMGINVVKRKLGAHDNLKLTITQEGNKFTVKESSNFRNIDVVFELGVDFAYSAADGTELTGTWTMEGNKLVGKFKRVDNGKELIAVREISGNELIQTYTYEGVEAKRIFKKE .
// result 7.67

// query Which pKd is listed for L2P22 G6: acrylodan-labeled mutant FABP probe: M18I, G31Y, A73G (protein, UniProt P02693 2-132, looked up, variant M18I G31Y A73G, acrylodan label, acrylodan-labeled mutant FABP probe: M18I, G31Y, A73G) Fatty acid-binding protein, …: AFDGTWKVDRNENYEKFIEKMGINVVKRKLYAHDNLKLTITQEGNKFTVKESSNFRNIDVVFELGVDFAYSLGDGTELTGTWTMEGNKLVGKFKRVDNGKELIAVREISGNELIQTYTYEGVEAKRIFKKE ?
// result 8.25

// query Field request: pKd | item: L11P7 B3 V26C: acrylodan-labeled mutant FABP probe: M21F, V26C, L72A, L78V, L102V (protein, UniProt P02693 2-132, looked up, variant M21F V26C L72A L78V L102V, acrylodan label, acrylodan-labeled mutant FABP probe: M21F, V26C, L72A, L78V, L102V) Fatty acid-binding protein, …: AFDGTWKVDRNENYEKFMEKFGINVCKRKLGAHDNLKLTITQEGNKFTVKESSNFRNIDVVFELGVDFAYSAADGTEVTGTWTMEGNKLVGKFKRVDNGKEVIAVREISGNELIQTYTYEGVEAKRIFKKE
// result 8.96
